Test system: myeloid leukemia patient primary cells Pat.15
ASSAY EXPLANATION: cell viability (% survival relative to DMSO control); higher = less cytotoxic
RECORDED CONDITIONS: 1000 nM; 72 h
# note: exactly 60% is not below, so it is Not met; use Met for cell viability strictly under it

These recorded examples may help you get a feel for the data.
O=C1C(SCCO)=C(SCCO)C(=O)c2ccccc21 ... Met
O=c1cc(N2CCOCC2)oc2c(-c3ccccc3)cccc12 ... Not met
CC(C)(C)c1ccc(S(=O)(=O)NCc2ccc(C(=O)Nc3cccnc3)cc2)cc1 [STF-31] ... Met
O=C(/C=C/c1ccc(O)c(O)c1)OCCc1ccccc1 [Caffeic acid phenethyl ester] ... Not met
C=CCN(C)CCCCCCOc1ccc(C(=O)c2ccc(Br)cc2)c(F)c1.O=C(O)/C=C/C(=O)O [Ro 48-8071 fumarate] ... Not met

Proceed to the following item.
Strictly below 60% in cell viability? CN1CCN(CCCN2c3ccccc3Sc3ccc(C(F)(F)F)cc32)CC1 [Trifluoperazine] Not met

* * *

Let's look at some compounds and their measured cell viability.
System: SHI-1
ASSAY EXPLANATION: cell viability (% survival relative to DMSO control, bortezomib = 0%); higher = less cytotoxic
RECORDED CONDITIONS: 1000 nM; 72 h
Numeric answer only, unit % assumed.

Take a look at these entries with their results.
CCCCCCCC/C=C\CCCCCCCC(=O)Nc1ccccc1 [Octadec-9-Enoic Acid Phenylamide] ... 100
CC(C)(C)c1ccc(S(=O)(=O)NCc2ccc(C(=O)Nc3cccnc3)cc2)cc1 [STF-31] ... 101
CCCCCN(C)CCC(O)(P(=O)(O)O)P(=O)(O)O [Ibandronate] ... 98

Now take the following compound into account.
Record CN1CCN(CCCN2c3ccccc3Sc3ccc(C(F)(F)F)cc32)CC1 [Trifluoperazine] : what is its cell viability with SHI-1? 92.1

* * *

Tested on: ML-2
ASSAY EXPLANATION: cell viability (% survival relative to DMSO control, bortezomib = 0%); higher = less cytotoxic
RECORDED CONDITIONS: 1 nM; 72 h
EXPERIMENTAL ENDPOINT: cell viability

Illustrative cases are given below, each with its answer.
CCOC(=O)c1sc(NC(=O)c2ccco2)c(SC#N)c1C ... 94.5%
CN(CCCOc1ccc(Cc2ccccc2)cc1)CCC(=O)O ... 105%
O=c1c(-c2ccc(O)cc2)coc2cc(O[C@@H]3O[C@H](CO)[C@@H](O)[C@H](O)[C@H]3O)ccc12 ... 103%

Moving on to another compound below.
Request the reported cell viability associated with CCN(CC)C(=S)SSC(=S)N(CC)CC 92%

* * *

Tested on: KU-812
ASSAY EXPLANATION: cell viability (% survival relative to DMSO control, bortezomib = 0%); higher = less cytotoxic
RECORDED CONDITIONS: 10 nM; 72 h
cell viability overview
Answer in %, number only, no unit symbol.

Worked set:
CC(C)CC(=O)N[C@H](C(=O)N[C@H](C(=O)N[C@@H](CC(C)C)[C@@H](O)CC(=O)N[C@@H](C)C(=O)N[C@@H](CC(C)C)[C@@H](O)CC(=O)O)C(C)C)C(C)C [Pepstatin A] ... 101
C[C@]12C=CC(=O)C=C1CC[C@@H]1[C@@H]2[C@@H](O)C[C@@]2(C)[C@H]1CC[C@]2(O)C(=O)CO [Prednisolone] ... 104

What measured cell viability goes with O=c1cc(-c2ccccc2)oc2c1ccc1ccccc12 [Alpha-Naphtoflavone] ? 99.3

Looking for the measured cell viability of CCc1oc2ccccc2c1C(=O)c1cc(Br)c(O)c(Br)c1 [Benzbromarone] , can you help? 95.2

Look at this compound and give its reported cell viability. CO[C@H]1C[C@@H]2CC[C@@H](C)[C@@](O)(O2)C(=O)C(=O)N2CCCC[C@H]2C(=O)O[C@H]([C@H](C)C[C@@H]2CC[C@@H](OC(=O)C(C)(CO)CO)[C@H](OC)C2)CC(=O)[C@H](C)/C=C(\C)[C@@H](O)[C@@H](OC)C(=O)[C@H](C)C[C@H](C)/C=C/C=C/C=C/1C [Temsirolimus] 42.9
